test: Plasma clearance in rat at 2 mg/kg, iv and 10 mg/kg, po
experimentalEndpoint: clearance (mL/min/kg)
Numbers only, in mL/min/kg.

Solved cases (2 shown):
* NCc1cccc(C2CCN(C(=O)c3ccc(C#Cc4ccccn4)o3)CC2)c1.O=C(O)C(F)(F)F | 310
* NCc1cccc(C2CCN(C(=O)c3ccc(C#Cc4ccccc4F)o3)CC2)c1.O=C(O)C(F)(F)F | 140

Please turn your attention to the following entry.
Request: I would be grateful if you could share the reported clearance for `NCc1cccc(C2CCN(C(=O)c3ccc(C#Cc4ccccc4)o3)CC2)c1.O=C(O)C(F)(F)F` .
Response: 85

====

assay: Tmax in rat at 10 mg/kg, po; assay type: ADME, organism-based; design: dose 10 mg/kg, route oral; conditions: in vivo
Please go through the items and note down their Tmax.
One number for each entry, in h.

• NCc1cccc(C2CCN(C(=O)c3ccc(C#Cc4ccccc4F)o3)CC2)c1.O=C(O)C(F)(F)F = 3.7

Now examine the next entry.
Request: Param item = `NCc1cccc(C2CCN(C(=O)c3ccc(C#Cc4ccccc4)o3)CC2)c1.O=C(O)C(F)(F)F` ; retrieve measured Tmax.
Response: 3.3

====

assay: Cmax in rat at 10 mg/kg, po; type: ADME, organism-based; set-up: dose 10 mg/kg, route oral; conditions: in vivo
Field: Cmax. Provide a value for each of the molecules that follow.
Answers are plain numbers, in ng/mL.

- NCc1cccc(C2CCN(C(=O)c3ccc(C#Cc4ccccc4)o3)CC2)c1.O=C(O)C(F)(F)F: 68

Now examine the next entry.
Request: Which measured Cmax value corresponds to `NCc1cccc(C2CCN(C(=O)c3ccc(C#Cc4ccccc4F)o3)CC2)c1.O=C(O)C(F)(F)F` ?
Response: 121

====

target: Chymase (Homo sapiens, UniProt P23946)
Sequence (P23946 whole entry): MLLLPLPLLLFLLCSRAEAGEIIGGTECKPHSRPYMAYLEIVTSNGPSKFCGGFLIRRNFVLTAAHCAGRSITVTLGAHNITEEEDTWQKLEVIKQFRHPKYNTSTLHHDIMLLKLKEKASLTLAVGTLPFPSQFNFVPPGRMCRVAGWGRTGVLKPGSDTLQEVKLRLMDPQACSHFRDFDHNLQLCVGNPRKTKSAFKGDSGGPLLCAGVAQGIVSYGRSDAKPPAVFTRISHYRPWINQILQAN
experimentalEndpoint: IC50

Request: Record request: IC50 value, item `NCc1cccc(C2CCN(C(=O)c3ccc(C#Cc4ccccn4)o3)CC2)c1.O=C(O)C(F)(F)F`
Response: > 100 µM

====

For each entry below, report its half-life value.
experiment: Half life in rat plasma at 2 mg/kg, iv

Examples from the recorded data:
• NCc1cccc(C2CCN(C(=O)c3ccc(C#Cc4ccccc4F)o3)CC2)c1.O=C(O)C(F)(F)F = 2.2 h
• NCc1cccc(C2CCN(C(=O)c3ccc(C#Cc4ccccn4)o3)CC2)c1.O=C(O)C(F)(F)F = 0.46 h

Turning now to a further record.
Request: Any idea what its half-life is? The compound is `NCc1cccc(C2CCN(C(=O)c3ccc(C#Cc4ccccc4)o3)CC2)c1.O=C(O)C(F)(F)F`
Response: 2.5 h

====

Kindly state log10(Ki) for each of the entries shown.
assay: Inhibition of human recombinant beta tryptase using S-2366 as substrate after 30 mins by spectrophotometry
Note: values are log10 of Ki expressed in nM.

Some entries whose results are on file:
- NCc1cccc(C2CCN(C(=O)c3ccc(C#Cc4ccccc4)o3)CC2)c1.O=C(O)C(F)(F)F: 1.49
- NCc1cccc(C2CCN(C(=O)c3ccc(C#Cc4ccsc4)o3)CC2)c1: 2.51

Batch: log10(Ki) for all items listed.
1. NCc1cccc(C2CCN(C(=O)c3ccc(C#Cc4ccccn4)o3)CC2)c1.O=C(O)C(F)(F)F
2. NCc1cccc(C2CCN(C(=O)c3ccc(C#Cc4ccc(F)cc4F)o3)CC2)c1
3. NCc1cccc(C2CCN(C(=O)c3ccc(C#Cc4ccc(Cl)nc4)o3)CC2)c1
4. NCc1cccc(C2CCN(C(=O)c3ccc(C#Cc4ccc(F)cc4)o3)CC2)c1
5. NCc1cccc(C2CCN(C(=O)c3ccc(C#Cc4ncccc4F)o3)CC2)c1

Response:
0.70
1.83
2.00
2.45
1.43
